Reference source for all entries: PubChem BioAssay (EPA / NIEHS)

Read-out: ABC Transporter (ABCB11), ABCB11 (gene 8647)
testDescription: CLD_ABCB11_48hr: CellzDirect (CLD) Gene Expression Assay for ABC Transporter (ABCB11) at 48 hours (AID 2283697)
Results filed as inconclusive are left out. The source made the active and inactive calls. How the source made its calls: active means hit-call score of the fitted dose curve at least 0.9, where 1 is the maximum; inconclusive means response in the unintended direction; inactive means score below 0.9.
The reply should name one outcome from active, inactive

Recorded results for 6 compounds are shown here.
[
  {
    "compound": "COP(=O)(OC)OC=C(Cl)Cl",
    "groupLabel": "inactive"
  },
  {
    "compound": "Oc1ccc(Cl)cc1Cc1ccccc1",
    "groupLabel": "inactive"
  },
  {
    "compound": "Cc1cc(C)nc(NC(=O)NS(=O)(=O)c2ccccc2C(=O)OC2COC2)n1",
    "groupLabel": "inactive"
  },
  {
    "compound": "COP(=S)(OC)Oc1ccc([N+](=O)[O-])cc1",
    "groupLabel": "inactive"
  },
  {
    "compound": "O=C1c2ccccc2C(=O)N1SC(Cl)(Cl)Cl",
    "groupLabel": "inactive"
  },
  {
    "compound": "CC[C@H](C)[C@H]1O[C@]2(C=C[C@@H]1C)C[C@@H]1C[C@@H](C/C=C(\\C)[C@@H](O[C@H]3C[C@H](OC)[C@@H](O[C@H]4C[C@H](OC)[C@@H](O)[C@H](C)O4)[C@H](C)O3)[C@@H](C)/C=C/C=C3\\CO[C@@H]4[C@H](O)C(C)=C[C@@H](C(=O)O1)[C@]34O)O2 (tested in a mixture with another compound)",
    "groupLabel": "active"
  }
]

Query: What did the test return for CCc1ccc(C(=O)NN(C(=O)c2cc(C)cc(C)c2)C(C)(C)C)cc1 ?
Response: inactive

====

Read-out: Apoptosis regulator Bcl-2 (Homo sapiens)
testDescription: LTEA_HepaRG_BCL2: Life Technologies and Expression Analysis (LTEA) Assay for Bcl-2 gene using HepaRG (AID 2283475);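 further: BCL2 transcript by TaqMan qRT-PCR normalised to ACTB GAPDH and POLR2A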
assayConditions: mRNA level, 48 h; actives raise or lower the signal
Calls of active or inactive are those of the source. The calls were made as follows: active = hit-call score of the fitted dose curve at least 0.9, where 1 is the maximum; inactive = score below 0.9.
The reply should name one outcome from class 1 for active, class 0 for inactive

Recorded results for 3 compounds are shown here.
[
  {
    "compound": "CNC(=O)Oc1cccc(N=CN(C)C)c1",
    "groupLabel": "class 0"
  },
  {
    "compound": "CNC(=O)/C=C(\\C)OP(=O)(OC)OC",
    "groupLabel": "class 0"
  },
  {
    "compound": "C[C@H]1[C@H](c2ccc(Cl)cc2)SC(=O)N1C(=O)NC1CCCCC1",
    "groupLabel": "class 1"
  }
]

Query: What did the test return for C#CCN1C(=O)COc2cc(F)c(N3C(=O)C4=C(CCCC4)C3=O)cc21 ?
Response: class 0

Query: And then O=C(O)C(F)(F)C(F)(F)C(F)(F)C(F)(F)C(F)(F)C(F)(F)C(F)(F)F , what is it?
Response: class 0

====

testDescription: APR_HepG2_StressKinase_1hr: Apredica 1-hour HepG2 Assay for Stress Kinase (AID 2282906)
assayConditions: HepG2 stress kinase (phospho-c-Jun) imaging, actives raise or lower the signal
Experimental: APR_HepG2_1hr is a cell-based, multiplexed-readout assay that uses HepG2, a human liver cell line, with measurements taken at 1 hour after chemical dosing in a 384-well plate.APR_HepG2_StressKinase_1hr is one of 10 assay component(s) measured or calculated from the APR_HepG2_1hr assay. […] This assay endpoint, APR_HepG2_StressKinase_1hr, was analyzed with bidirectional fitting relative to DMSO as the negative control and baseline of activity. […]
Active and inactive are the calls of the source. How the source made its calls: active means hit-call score of the fitted dose curve at least 0.9, where 1 is the maximum; inactive means score below 0.9.
The reply should name one outcome from active, inactive

Recorded results for 6 compounds are shown here.
[
  {
    "compound": "O=S1OCC2C(CO1)C1(Cl)C(Cl)=C(Cl)C2(Cl)C1(Cl)Cl (centres undefined)",
    "groupLabel": "active"
  },
  {
    "compound": "CCOC1Oc2ccc(OS(C)(=O)=O)cc2C1(C)C (centres undefined)",
    "groupLabel": "inactive"
  },
  {
    "compound": "CC1(C)C(C=C(Cl)Cl)C1C(=O)OC(C#N)c1ccc(F)c(Oc2ccccc2)c1 (centres undefined)",
    "groupLabel": "inactive"
  },
  {
    "compound": "COc1cc(OC)nc(NC(=O)NS(=O)(=O)c2cc(NC=O)ccc2C(=O)N(C)C)n1",
    "groupLabel": "inactive"
  },
  {
    "compound": "CNC(=O)Oc1ccccc1OC(C)C",
    "groupLabel": "inactive"
  },
  {
    "compound": "O=C(O)C(F)(F)C(F)(F)C(F)(F)C(F)(F)C(F)(F)C(F)(F)C(F)(F)F",
    "groupLabel": "inactive"
  }
]

Query: What did the test return for COC(=O)c1ccccc1CS(=O)(=O)NC(=O)Nc1nc(OC)cc(OC)n1 ?
Response: inactive

Query: And then Cc1cc(C)nc(NC(=O)NS(=O)(=O)c2ccccc2C(=O)OC2COC2)n1 , what is it?
Response: inactive

Query: And then CCC(C)(NC(=O)c1cc(Cl)c(C)c(Cl)c1)C(=O)CCl (centres undefined) , what is it?
Response: active

====

Read-out: Forkhead box O1 (FOXO1), FOXO1 (gene 2308)
testDescription: LTEA_HepaRG_FOXO1: Life Technologies and Expression Analysis (LTEA) Assay for Forkhead box O1 (FOXO1) using HepaRG (AID 2283456)
assayConditions: mRNA level, 48 h; actives raise or lower the signal
The source made the active and inactive calls. How the source made its calls: active means hit-call score of the fitted dose curve at least 0.9, where 1 is the maximum; inactive means score below 0.9.
The reply should name one outcome from active, inactive

Recorded results for 2 molecules are shown here.
[
  {
    "molecule": "CC[C@H](C)[C@H]1O[C@]2(C=C[C@@H]1C)C[C@@H]1C[C@@H](C/C=C(\\C)[C@@H](O[C@H]3C[C@H](OC)[C@@H](O[C@H]4C[C@H](OC)[C@@H](O)[C@H](C)O4)[C@H](C)O3)[C@@H](C)/C=C/C=C3\\CO[C@@H]4[C@H](O)C(C)=C[C@@H](C(=O)O1)[C@]34O)O2 (tested in a mixture with another compound)",
    "groupLabel": "active"
  },
  {
    "molecule": "CCC(C)(NC(=O)c1cc(Cl)c(C)c(Cl)c1)C(=O)CCl (stereo not drawn)",
    "groupLabel": "inactive"
  }
]

Query: What did the test return for CC(C)(C)C(O)C(Oc1ccc(Cl)cc1)n1cncn1 (stereo not drawn) ?
Response: inactive

====

testDescription: ATG_CRE_CIS: Attagene CIS-FACTORIAL HepG2 Assay for human cAMP Responsive Element (CRE) binding protein 3 (AID 2282926)
assayConditions: HepG2 CRE cis-reporter, Attagene multiplexed mRNA; actives raise or lower the signal
Active and inactive are the calls of the source. How the source made its calls: active means hit-call score of the fitted dose curve at least 0.9, where 1 is the maximum; inactive means score below 0.9.
The reply should name one outcome from active, inactive

Recorded results for 5 compounds are shown here.
[
  {
    "compound": "CC(C)N(C(=O)COc1nnc(C(F)(F)F)s1)c1ccc(F)cc1",
    "groupLabel": "active"
  },
  {
    "compound": "COc1cc(OC)nc(NC(=O)NS(=O)(=O)c2cc(NC=O)ccc2C(=O)N(C)C)n1",
    "groupLabel": "inactive"
  },
  {
    "compound": "COC(=O)c1ccccc1S(=O)(=O)NC(=O)Nc1nc(C)nc(OC)n1",
    "groupLabel": "inactive"
  },
  {
    "compound": "CC1(c2ccc(Oc3ccccc3)cc2)OC(=O)N(Nc2ccccc2)C1=O (centres undefined)",
    "groupLabel": "active"
  },
  {
    "compound": "CCC(C)Nc1c([N+](=O)[O-])cc(C(C)(C)C)cc1[N+](=O)[O-] (centres undefined)",
    "groupLabel": "active"
  }
]

Query: What did the test return for O=C(Nc1ccccc1)Nc1cnns1 ?
Response: inactive

Query: And then COC(=O)c1ccccc1CS(=O)(=O)NC(=O)Nc1nc(OC)cc(OC)n1 , what is it?
Response: inactive

Query: And then O=C1c2ccccc2C(=O)N1SC(Cl)(Cl)Cl , what is it?
Response: inactive

Query: And then O=[N+]([O-])/N=C1\NCCN1Cc1ccc(Cl)nc1 , what is it?
Response: inactive

====

Read-out: Cytochrome P450 2C19 (Homo sapiens) (UniProt P33261)
Sequence (P33261 whole entry, looked up): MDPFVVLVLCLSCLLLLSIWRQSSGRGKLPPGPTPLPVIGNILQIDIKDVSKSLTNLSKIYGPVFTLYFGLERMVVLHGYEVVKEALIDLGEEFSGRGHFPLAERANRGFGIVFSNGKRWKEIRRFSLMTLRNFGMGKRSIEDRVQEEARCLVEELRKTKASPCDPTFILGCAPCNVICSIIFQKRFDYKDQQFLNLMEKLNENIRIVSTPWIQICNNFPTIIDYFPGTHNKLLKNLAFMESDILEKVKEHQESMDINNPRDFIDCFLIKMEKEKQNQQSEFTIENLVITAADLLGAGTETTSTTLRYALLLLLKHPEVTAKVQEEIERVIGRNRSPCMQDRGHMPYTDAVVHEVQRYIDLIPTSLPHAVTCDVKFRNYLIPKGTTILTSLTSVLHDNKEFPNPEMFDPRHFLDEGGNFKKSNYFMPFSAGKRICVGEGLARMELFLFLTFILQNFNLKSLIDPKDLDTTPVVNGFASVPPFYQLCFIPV
testDescription: LTEA_HepaRG_CYP2C19: Life Technologies and Expression Analysis (LTEA) Assay for CYP2C19 using HepaRG (AID 2283482)
assayConditions: mRNA level, 48 h; actives raise or lower the signal
Activity calls are given as the source filed them. How the source made its calls: active means hit-call score of the fitted dose curve at least 0.9, where 1 is the maximum; inactive means score below 0.9.
The reply should name one outcome from active, inactive

[
  {
    "compound": "OCCOc1ccccc1",
    "groupLabel": "inactive"
  },
  {
    "compound": "CC(C)OC(=O)Nc1cccc(Cl)c1",
    "groupLabel": "inactive"
  },
  {
    "compound": "CCCN(CCOc1c(Cl)cc(Cl)cc1Cl)C(=O)n1ccnc1",
    "groupLabel": "active"
  },
  {
    "compound": "CCc1ccc(C(=O)NN(C(=O)c2cc(C)cc(C)c2)C(C)(C)C)cc1",
    "groupLabel": "active"
  },
  {
    "compound": "O=C1c2ccccc2C(=O)N1SC(Cl)(Cl)Cl",
    "groupLabel": "inactive"
  },
  {
    "compound": "CCN(CC)C(=O)SCc1ccc(Cl)cc1",
    "groupLabel": "active"
  },
  {
    "compound": "CN1CSC(=S)N(C)C1",
    "groupLabel": "inactive"
  },
  {
    "compound": "CCCN(CCC)c1c([N+](=O)[O-])cc(C(F)(F)F)cc1[N+](=O)[O-]",
    "groupLabel": "inactive"
  }
]

Query: What did the test return for CC1(C)C(C=C(Cl)Cl)C1C(=O)OC(C#N)c1ccc(F)c(Oc2ccccc2)c1 (configuration not stated) ?
Response: active

Query: And then COP(=S)(OC)Oc1ccc(SC)c(C)c1 , what is it?
Response: active

Query: And then COP(=S)(OC)Oc1ccc([N+](=O)[O-])cc1 , what is it?
Response: active

Query: And then CNC(=O)Oc1ccccc1OC(C)C , what is it?
Response: inactive
